tested on: MDA-MB-468 breast; assay: NCI tumour cell line growth inhibition, 48 h
Entries and their measured GI50 follow.
RECORDED ENDPOINT: GI50

[[record]]
compound = "COc1ccc(S(=O)(=O)N2CCNCC2)cc1OC"
target_entity = "MDA-MB-468 breast"
recorded_endpoint = "GI50"
value_reported = "> 100000 nM"

[[record]]
compound = "COc1cc(C(=O)/C=C/c2c(C(F)(F)F)nc3ccccn23)cc(OC)c1OC"
target_entity = "MDA-MB-468 breast"
recorded_endpoint = "GI50"
value_reported = "2120 nM"

[[record]]
compound = "C=CC(=O)N[C@@H](/C=C/C(=O)OCC)Cc1ccc(-c2cc(Cl)cc(Cl)c2)cc1"
target_entity = "MDA-MB-468 breast"
recorded_endpoint = "GI50"
value_reported = "5170 nM"

[[record]]
compound = "COc1ccc(-c2c3c(N)c4c(nc3nc3c2c(C)nn3-c2ccccc2)CCCC4)cc1"
target_entity = "MDA-MB-468 breast"
recorded_endpoint = "GI50"
value_reported = "2330 nM"

[[record]]
compound = "COc1cc2c(cc1NC(=O)C(Cl)Cl)-c1ccc(NC(=O)C(Cl)Cl)cc1C2"
target_entity = "MDA-MB-468 breast"
recorded_endpoint = "GI50"
value_reported = "280 nM"

[[record]]
compound = "C[C@@H](NC(=O)c1ccc(F)cc1)c1ccc2c(c1)CCN2C(=O)C1CCOCC1"
target_entity = "MDA-MB-468 breast"
recorded_endpoint = "GI50"
value_reported = "> 100000 nM"

[[record]]
compound = "c1ccc(C2CCCCC2)c(OCCCCCN2CCNCC2)c1"
target_entity = "MDA-MB-468 breast"
recorded_endpoint = "GI50"
value_reported = "1770 nM"

[[record]]
compound = "Clc1nc(Cl)c2ncn(CCOCCn3cnc4c(Cl)nc(Cl)nc43)c2n1"
target_entity = "MDA-MB-468 breast"
recorded_endpoint = "GI50"
value_reported = "179 nM"

[[record]]
compound = "C=CCN(CC=C)C(=O)[C@H](CC)[C@@H]1CC[C@@H](C)[C@@H]([C@H](C)[C@@H](O)[C@@H](C)C(=O)[C@H](CC)C2O[C@]3(C=C[C@@H](O)[C@]4(CC[C@@](C)([C@H]5CC[C@](O)(CC)[C@H](C)O5)O4)O3)[C@H](C)C[C@@H]2C)O1 (some centres not stated)"
target_entity = "MDA-MB-468 breast"
recorded_endpoint = "GI50"
value_reported = "1530 nM"

[[record]]
compound = "S=C(NCc1ccc2c(c1)OCO2)N1CCN(c2ncnc3c2oc2ccccc23)CC1"
target_entity = "MDA-MB-468 breast"
recorded_endpoint = "GI50"
value_reported = "456 nM"

[[record]]
compound = "Cn1cc(-c2cc(N)n3nc(-c4cn(C)c5ncccc45)cc3n2)c2cccnc21"
target_entity = "MDA-MB-468 breast"
recorded_endpoint = "GI50"
value_reported = "13700 nM"

[[record]]
compound = "COc1ccc(/C=N\\Nc2nc(SCC(C)C)nc(-c3ccc(OC)cc3)c2C#N)cc1"
target_entity = "MDA-MB-468 breast"
recorded_endpoint = "GI50"
value_reported = "4360 nM"


----------
system: MDA-MB-468 breast; assay: NCI tumour cell line growth inhibition, 48 h
RECORDED ENDPOINT: TGI (µM)

[[record]]
molecule = "COC(=O)c1cc([N+](=O)[O-])cc([N+](=O)[O-])c1Cl"
unit_label = "µM"
modifier = "="
value_reported = 2.57

[[record]]
molecule = "CC1(C)[C@H](O)[C@H](F)C[C@@]2(C)Oc3ccc(C(=O)Nc4ccc5c(c4)NC(=O)C54CCN(CCCCC#N)CC4)cc3C[C@H]12"
unit_label = "µM"
modifier = "="
value_reported = 10.7

[[record]]
molecule = "S=C(NCc1ccc2c(c1)OCO2)N1CCN(c2ncnc3c2oc2ccccc23)CC1"
unit_label = "µM"
modifier = ">"
value_reported = 100

[[record]]
molecule = "Clc1ccc([I+]c2ccc(Cl)cc2Cl)c(Cl)c1"
unit_label = "µM"
modifier = "="
value_reported = 2.81

[[record]]
molecule = "COc1ccc(COc2cc3oc(=O)c4cc(C(C)O)ccc4c3cc2OC)cc1 (stereo unspecified)"
unit_label = "µM"
modifier = ">"
value_reported = 100

[[record]]
molecule = "COc1ccc(-c2c3c(N)c4c(nc3nc3c2c(C)nn3-c2ccccc2)CCCC4)cc1"
unit_label = "µM"
modifier = "="
value_reported = 7.67

[[record]]
molecule = "O=S(=O)(NCCCNc1cc(-c2cn(-c3ccccc3)nc2-c2cccc(O)c2)ccn1)c1ccc(F)cc1"
unit_label = "µM"
modifier = "="
value_reported = 6.73

[[record]]
molecule = "Nc1nc(-c2ccc(Cl)cc2)nc2c1sc(=S)n2-c1ccccc1"
unit_label = "µM"
modifier = "="
value_reported = 23.2

[[record]]
molecule = "c1ccc(C2CCCCC2)c(OCCCCCN2CCNCC2)c1"
unit_label = "µM"
modifier = "="
value_reported = 4.2

[[record]]
molecule = "O=C1/C(=C/c2ccccc2[N+](=O)[O-])COc2ccc(O)cc21"
unit_label = "µM"
modifier = "="
value_reported = 4.56

[[record]]
molecule = "CC1CCN(CCOc2ccc(CNc3ccc4nc(CCC5CCCCC5)[nH]c4c3)cc2)CC1"
unit_label = "µM"
modifier = "="
value_reported = 3.25

